Assay: Inhibition of bovine PP2A using [32P]-phosphohistone as substrate preincubated for 10 mins followed by substrate addition
Parameters: species or system Bos taurus
readout: IC50 (nM)
Unit nM implied. Number only.

Query CN1CCN(C(=O)[C@@H]2[C@H](C(=O)O)[C@H]3CC[C@@H]2O3)CC1 yields IC50 of 9

* * *

Assay: Aqueous solubility of compound by HPLC method
Type: physicochemical
Settings: water
readout: solubility (mg/mL)
Report the value in mg/mL with no unit label.

Recorded solubility (compound O=C(O)[C@@H]1[C@H](C(=O)n2ccc3ccccc32)[C@H]2CC[C@@H]1O2 ): 0.552

* * *

Assay: Cytotoxicity against human BEAS-2B incubated for 48 hrs by CCK8 assay
Assay type: toxicity, cell-based
Conditions: BEAS-2B cells
readout: IC50 at 48 h (µM)
Please give a number only; it is taken to be in µM.

CN1CCN(C(=O)[C@@H]2[C@H](C(=O)O)[C@H]3CC[C@@H]2O3)CC1 3.5

In plain terms, O=C(O)[C@@H]1[C@H](C(=O)n2ccc3ccccc32)[C@H]2CC[C@@H]1O2 has a documented IC50 at 48 h of 57.8

* * *

Experiment: MRT(0 to infinity) in Sprague-Dawley rat at 25 mg/kg, po measured upto 24 hrs by LC-MS/MS method
Format: ADME, organism-based
Details: in vivo
readout: MRT inf (h)
Give a bare numeral; the unit h is implied.

Recorded result, O=C(O)[C@@H]1[C@H](C(=O)n2ccc3ccccc32)[C@H]2CC[C@@H]1O2 , MRT inf: 5

* * *

Assay: Cytotoxicity against HUVECs incubated for 48 hrs by CCK8 assay
Type: toxicity, cell-based
Conditions: human, HUVEC cells
readout: IC50 at 48 h (µM)
Could you give me the number in µM? Just the number is fine.

# compound CN1CCN(C(=O)[C@@H]2[C@H](C(=O)O)[C@H]3CC[C@@H]2O3)CC1 ; its IC50 at 48 h = 9.7

* * *

Test: Oral bioavailability in Sprague-Dawley rat at 25 mg/kg measured upto 24 hrs by LC-MS/MS method
Assay type: ADME, organism-based
Settings: in vivo
readout: bioavailability (%)
Write the answer as a number in %, unit excluded.

Reported bioavailability of O=C(O)[C@@H]1[C@H](C(=O)n2ccc3ccccc32)[C@H]2CC[C@@H]1O2 : 82

* * *

Test: Apparent volume of distribution in Sprague-Dawley rat at 5 mg/kg, iv measured upto 24 hrs by LC-MS/MS method
Format: ADME, organism-based
Conditions: in vivo, read-out: Vz
readout: Vd (L/kg)
Number only, in L/kg; omit the unit.

// O=C(O)[C@@H]1[C@H](C(=O)n2ccc3ccccc32)[C@H]2CC[C@@H]1O2 : Vd value = 1.32

* * *

Catalogue of half-life readings, one per entry.
Test: Stability in mouse plasma assessed as half life measured upto 300 mins by LC-MS/MS analysis
Assay type: ADME, cell-free
Express your answer as a number followed by its unit.

CN1CCN(C(=O)[C@@H]2[C@H](C(=O)O)[C@H]3CC[C@@H]2O3)CC1 5.03 h

Shift focus to the following entry.
Entry under test: O=C(O)[C@@H]1[C@H](C(=O)n2ccc3ccccc32)[C@H]2CC[C@@H]1O2 . Its half-life was 2.09 h

* * *

Biological target: Serine/threonine-protein phosphatase 5 (Homo sapiens, UniProt P53041)
Sequence (P53041 whole entry): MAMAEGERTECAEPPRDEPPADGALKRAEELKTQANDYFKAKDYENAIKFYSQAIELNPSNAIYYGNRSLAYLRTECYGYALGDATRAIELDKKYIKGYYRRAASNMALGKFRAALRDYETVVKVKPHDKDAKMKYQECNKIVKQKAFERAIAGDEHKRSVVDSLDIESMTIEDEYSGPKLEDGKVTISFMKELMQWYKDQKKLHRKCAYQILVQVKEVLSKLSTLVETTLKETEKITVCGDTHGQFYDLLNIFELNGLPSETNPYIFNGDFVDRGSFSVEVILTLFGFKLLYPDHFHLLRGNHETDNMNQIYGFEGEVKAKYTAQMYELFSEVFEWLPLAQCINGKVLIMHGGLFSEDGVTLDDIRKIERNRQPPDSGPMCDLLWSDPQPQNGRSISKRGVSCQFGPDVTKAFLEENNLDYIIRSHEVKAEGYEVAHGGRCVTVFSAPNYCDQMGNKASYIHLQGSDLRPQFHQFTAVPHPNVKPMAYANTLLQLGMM
readout: IC50 (µM)
All answers are understood in µM, so give the number only.

# lookup: CN1CCN(C(=O)[C@@H]2[C@H](C(=O)O)[C@H]3CC[C@@H]2O3)CC1 on Serine/threonine-protein phosphatase 5 (Homo sapiens, UniProt P53041), IC50 = 3
